A collection of molecules and their measured EC50
- Tested target: human GPR84 (Homo sapiens)
- Sequence (Q9NQS5 whole entry): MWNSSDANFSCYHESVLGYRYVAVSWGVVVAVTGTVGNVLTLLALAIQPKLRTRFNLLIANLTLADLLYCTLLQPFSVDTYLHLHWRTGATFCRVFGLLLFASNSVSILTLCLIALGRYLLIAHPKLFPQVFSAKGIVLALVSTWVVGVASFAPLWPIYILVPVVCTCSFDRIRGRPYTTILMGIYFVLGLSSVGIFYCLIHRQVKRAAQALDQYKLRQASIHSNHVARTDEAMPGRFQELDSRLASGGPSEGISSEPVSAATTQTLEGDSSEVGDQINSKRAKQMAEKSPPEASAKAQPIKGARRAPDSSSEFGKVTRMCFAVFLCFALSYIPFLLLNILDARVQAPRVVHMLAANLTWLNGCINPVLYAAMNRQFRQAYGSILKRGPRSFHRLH
- Experimental protocol: cell-based
- Format: cell-based
- Assay conditions: EC50 ± SEM, cAMP assay, CHO cells expressing human GPR84; forskolin 10 μM
Write down the numeric answer in nM and omit the unit.

| Query smiles | EC50, nM |
| --- | --- |
| O=c1cc(NCCOc2ccccc2)[nH]c(=O)[nH]1 | 100 |
| Cc1ccc(CCNc2cc(=O)[nH]c(=O)[nH]2)cc1 | 13 |
| CCCCCNc1cc(=O)[nH]c(=O)[nH]1 | 460 |
| CSCCCNc1cc(=O)[nH]c(=O)[nH]1 | 23000 |

Req: Report EC50, nothing else, for this molecule: "CCCCCCCCCCNc1cc(=O)n(C)c(=O)[nH]1"
Resp: 1900

Req: Report EC50, nothing else, for this molecule: "CCCCCCCCCNc1cc(=O)n(C)c(=O)[nH]1"
Resp: 2000

Req: Report EC50, nothing else, for this molecule: "CC(C)CCCCCNc1cc(=O)[nH]c(=O)[nH]1"
Resp: 5900

Req: Report EC50, nothing else, for this molecule: "O=c1cc(NCCc2cccc(Cl)c2)[nH]c(=O)[nH]1"
Resp: 130
